Reference for the values: patent US8785452B2

Test system: Raw264.7 cells
Experiment: Cell number (CellNb) from image analysis of the phenotypic cell-based assay
Settings: confirmation, 0.2 uM
propertyName: QIM Confirm CellNb 0.2 uM
Output: the number by itself.

| compound | measValue |
| --- | --- |
| O=[N+]([O-])c1ccc(/C=N/c2ccccc2O)cc1 [IPK 000 040 14] | 321.4 |

Param readout = QIM Confirm CellNb 0.2 uM; param system = Raw264.7 cells; param query = O=C(Oc1cccc2cccnc12)c1cccc([N+](=O)[O-])c1 [IPK 000 018 66] ; response: value
258.1

For the record O=C(NN1C(=O)c2ccc(Br)cc2C1=O)c1ccncc1 [IPK 000 008 02] , what value of QIM Confirm CellNb 0.2 uM is listed for Raw264.7 cells?
306.6

Record Clc1ccc(Nc2nc3nonc3nc2Nc2ccc(Cl)cc2)cc1 [IPK 000 003 90] : what is its QIM Confirm CellNb 0.2 uM with Raw264.7 cells?
142.3

// fetch Raw264.7 cells QIM Confirm CellNb 0.2 uM for O=C(NN=C1CCCCC1)c1ccncc1 [IPK 000 013 72]
448.5

Please tell me: QIM Confirm CellNb 0.2 uM of Fc1ccc(Nc2nc3nonc3nc2Nc2ccc(F)cc2)cc1 [IPK 000 003 91] , system Raw264.7 cells?
220.9

What reported QIM Confirm CellNb 0.2 uM corresponds to Clc1ccc(Nc2nc3nonc3nc2Nc2ccc(Cl)c(Cl)c2)cc1Cl [IPK 000 003 89] on Raw264.7 cells?
265.3

Item O=C(N/N=C/c1cc(Br)c(Br)o1)c1ccncc1 [IPK 000 009 41] with Raw264.7 cells - QIM Confirm CellNb 0.2 uM?
257.8

Quick check: QIM Confirm CellNb 0.2 uM on Raw264.7 cells, item Cc1cccc(/C=N/NC(=O)c2ccncc2)c1 [IPK 000 043 26] ?
413.6
